Overview of recorded normalized growth for various compounds
# PROCEDURE SUMMARY: chemical genetic growth profiling, strain panel (AID 1159580);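 note: tested at 20 µM; growth read once vehicle control cultures reached saturation at 30 °C; 1 = growth at the plate median or of vehicle wells; lower values mean less growth of the strain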
# APPLIED CONDITIONS: S. cerevisiae deletion strains, growth OD, locus YMR058W, strain fet3, active compounds read low
Screen size: about 5,500 compounds; about 2,000 (36%) were called active. Not shown: some 18% with an inconclusive outcome. The list shows a part of the results.

| COMPOUND | RESULT |
| --- | --- |
| NCC1CCC(C(=O)O)CC1 (configuration not stated) | 0.988 (inactive) |
| COc1ccc2cc([C@H](C)C(=O)O)ccc2c1 | 0.969 (inactive) |
| CCCCCCCCCCCCCCCC(=O)OC/C=C(C)/C=C/C=C(C)/C=C/C1=C(C)CCCC1(C)C | 0.999 (inactive) |
| CCOC(=O)C(Cc1ccc(O)cc1)NC(C)=O (configuration not stated) | 1.01 (inactive) |
| CC(=O)N[C@@H](CC(C)C)C(=O)O | 0.982 (inactive) |

Query: Can you look up the measured normalized growth of CC(C)(O)[C@@H]1[C@H]2OC(=O)[C@@H]1[C@]1(O)C[C@H]3O[C@]34C(=O)O[C@H]2[C@]14C for me?
Reply: 1.01 (inactive)

Query: Moving on to the next compound: CC(C(=O)O)c1cccc(C(=O)c2ccccc2)c1 (configuration not stated)
Reply: 0.995 (inactive)

Query: Moving on to the next compound: CCOC(=O)C(=O)C1(C(=O)OCC)Oc2cc(OC)cc(OC)c2C(=O)C1c1ccccc1 (configuration not stated)
Reply: 0.946 (inactive)

Query: Moving on to the next compound: CC(C(=O)O)c1ccc(-c2ccccc2)c(F)c1 (configuration not stated)
Reply: 0.994 (inactive)

Query: Moving on to the next compound: CS(=O)(=O)c1ccc(C2=C(c3ccccc3)C(=O)OC2)cc1
Reply: 0.978 (inactive)

Query: Moving on to the next compound: ClC1=C(Cl)C2(Cl)C3C4C=CC(C4)C3C1(Cl)C2(Cl)Cl (configuration not stated)
Reply: 0.999 (inactive)

Query: Moving on to the next compound: CC1=C(CC(=O)O)c2cc(F)ccc2/C1=C\c1ccc(S(C)=O)cc1 (configuration not stated)
Reply: 1.03 (inactive)

====

# PROCEDURE SUMMARY: chemical genetic growth profiling, strain panel (AID 1159580);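 note: tested at 20 µM; growth read once vehicle control cultures reached saturation at 30 °C; 1 = growth at the plate median or of vehicle wells; lower values mean less growth of the strain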
# APPLIED CONDITIONS: S. cerevisiae deletion strains, growth OD, locus YGR229C, strain SMI1
Out of some 5,500 compounds screened, about 2,000 (36%) were called active. Not shown: some 18% with an inconclusive outcome. Cut-off read from the data, not from the text of the source: active = normalized growth mostly below about 0.91 (no sharp cut-off); inconclusive = no clear call, values can overlap the other calls; inactive = mostly above about 0.92. This is one part of the list.
# valid calls are y for active, n for inactive; nothing else

| COMPOUND | LABEL CLASS |
| --- | --- |
| CCCCNc1c(C(=O)OCC)c(C)nc2c1cnn2CC | n |
| CN1CCc2cc(Cl)c(O)cc2[C@@H](c2ccccc2)C1 | n |
| O=C1C=CC(=C(c2ccc(O)cc2)c2ccc(O)cc2)C=C1 | n |
| C[C@H]1OC(n2cc(F)c(=O)[nH]c2=O)C(O)[C@@H]1O (stereo partly drawn) | n |
| CN(C)c1ccc(C(=C2C=CC(=[N+](C)C)C=C2)c2ccc(N(C)C)cc2)cc1 | y |

Query: For this compound, state the assay outcome: C[C@H]1CC2C([C@@H](O)C[C@@]3(C)C2CC[C@]3(O)C(=O)CO)[C@@]2(C)C=CC(=O)C=C12 (stereo partly drawn)
Reply: n

====

# PROCEDURE SUMMARY: chemical genetic growth profiling, strain panel (AID 1159580);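 note: tested at 20 µM; growth read once vehicle control cultures reached saturation at 30 °C; 1 = growth at the plate median or of vehicle wells; lower values mean less growth of the strain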
# APPLIED CONDITIONS: S. cerevisiae deletion strains, growth OD, locus YAL021C, strain ccr4, active compounds read low
Out of some 5,500 compounds screened, about 2,000 (36%) were called active. Inconclusive results (about 18%) are left out. Some of the results follow.
Overview of recorded normalized growth for various molecules
Write the number on its own, no unit after it.

Example molecules with recorded normalized growth:
| MOLECULE | normalized growth |
| --- | --- |
| c1cncc(C2CCCCN2)c1 (configuration not stated) | 0.986 |
| O=C(O)C1(O)C[C@@H](O)C(O)[C@H](O)C1 (some centres not stated) | 0.984 |
| CCOC(=O)C(Cc1ccc(O)cc1)NC(C)=O (configuration not stated) | 1.01 |
| COc1ccc2cc([C@H](C)C(=O)O)ccc2c1 | 0.943 |
| CC(N)C(=O)OC(C)(C)Cc1ccc(Cl)cc1 (configuration not stated) | 1.03 |
| CN(C)c1ccc(C(=C2C=CC(=[N+](C)C)C=C2)c2ccc(N(C)C)cc2)cc1 | 0.479 |
| COc1cc(NS(=O)(=O)c2ccc(N)cc2)nc(OC)n1 | 0.976 |
| C=Cc1c2[nH]c(c1C)C=c1[nH]c(c(C)c1C=C)=CC1N=C(C=c3[nH]c(c(C)c3CCC(=O)O)=C2)C(CCC(=O)O)=C1C (configuration not stated) | 0.954 |
| CC(CCc1ccccc1)NC(C)C(O)c1ccc(O)cc1 (configuration not stated) | 0.992 |
| CC1CC2C3CCC4=CC(=O)C=C[C@]4(C)[C@@]3(F)[C@@H](O)C[C@]2(C)[C@@]1(O)C(=O)CO (some centres not stated) | 0.974 |

Query: Can you look up the measured normalized growth of CC(=O)OC(C)(C)[C@@H]1Cc2cc3ccc(=O)oc3cc2O1 for me?
Reply: 1.01

Query: Moving on to the next molecule: COc1ccc2cc([C@H](C)CO)ccc2c1
Reply: 1.04

Query: Moving on to the next molecule: CC(N)CCCC(C)(C)O (configuration not stated)
Reply: 0.973

Query: Moving on to the next molecule: COc1ccc(OC)c(C(O)C(C)N)c1 (configuration not stated)
Reply: 1

Query: Moving on to the next molecule: CC(=O)OCC[N+](C)(C)C
Reply: 1.03

Query: Moving on to the next molecule: CC1=C(C/C=C(\C)CCC[C@H](C)CCC[C@H](C)CCCC(C)C)C(=O)c2ccccc2C1=O
Reply: 0.99

Query: Moving on to the next molecule: CN1CCC(=C2c3ccccc3Sc3ccccc32)CC1
Reply: 0.936

====

# PROCEDURE SUMMARY: chemical genetic growth profiling, strain panel (AID 1159580);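 note: tested at 20 µM; growth read once vehicle control cultures reached saturation at 30 °C; 1 = growth at the plate median or of vehicle wells; lower values mean less growth of the strain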
# APPLIED CONDITIONS: S. cerevisiae deletion strains, growth OD, locus YOR290C, strain snf2
The whole screen tested about 5,500 compounds, of which about 2,000 (36%) were called active. Inconclusive results (about 18%) are left out. Rule as the data show it: active = normalized growth mostly below about 0.91 (no sharp cut-off); inconclusive = no clear call, values can overlap the other calls; inactive = mostly above about 0.92. Some of the results follow.
# valid calls are active, inactive; nothing else

| COMPOUND | LABEL CLASS |
| --- | --- |
| c1cncc(C2CCCCN2)c1 (stereo unspecified) | inactive |
| CC(=O)O[C@@H]1C[C@@]2(C)C(CC[C@@H]2C(C)=O)C2CCC3=CC(=O)CC[C@]3(C)C21 (stereo partly specified) | inactive |
| COc1cc(NC(C)CCCN)c2ncccc2c1 (stereo unspecified) | inactive |
| C[N+](C)(C)CCOC(N)=O | inactive |

Query: For this compound, state the assay outcome: CC(C)(O)[C@@H]1[C@H]2OC(=O)[C@@H]1[C@]1(O)C[C@H]3O[C@]34C(=O)O[C@H]2[C@]14C
Reply: inactive

Query: Moving on to the next compound: Cc1[nH]c(C)c(Cl)c(=O)c1Cl
Reply: inactive

Query: Moving on to the next compound: CC1=C(CC(=O)O)c2cc(F)ccc2/C1=C\c1ccc(S(C)=O)cc1 (stereo unspecified)
Reply: inactive

Query: Moving on to the next compound: CC(C[N+](C)(C)C)OC(N)=O (stereo unspecified)
Reply: inactive

Query: Moving on to the next compound: CC1(C)OC(=O)NC1=O
Reply: inactive

Query: Moving on to the next compound: COc1cc2c(cc1OC)Cc1cc(OC)c(OC)cc1Cc1cc(OC)c(OC)cc1C2
Reply: inactive

Query: Moving on to the next compound: CCOC(=O)CCC(=O)O[C@H]1[C@H](O[C@@H]2[C@@H](C)[C@H](O[C@H]3C[C@@](C)(OC)[C@@H](O)[C@H](C)O3)[C@@H](C)C(=O)O[C@H](CC)[C@@](C)(O)[C@H](O)[C@@H](C)C(=O)[C@H](C)C[C@@]2(C)O)O[C@H](C)C[C@@H]1N(C)C
Reply: inactive

Query: Moving on to the next compound: COc1cc2c(cc1OC)C(=O)OC2
Reply: inactive

Query: Moving on to the next compound: COc1cc(O)c(C(=O)/C=C/c2ccc(OC)c(O)c2)c(OC)c1
Reply: active

Query: Moving on to the next compound: CC(=O)[C@H]1CCC2C3CCC4=CC(=O)CC[C@]4(C)C3CC[C@@]21C (stereo partly specified)
Reply: inactive

Query: Moving on to the next compound: Oc1cc(Cl)ccc1Oc1ccc(Cl)cc1Cl
Reply: active

Query: Moving on to the next compound: C=Cc1c2[nH]c(c1C)C=c1[nH]c(c(C)c1C=C)=CC1N=C(C=c3[nH]c(c(C)c3CCC(=O)O)=C2)C(CCC(=O)O)=C1C (stereo unspecified)
Reply: inactive
